# reported solubility; entries follow
assay: Solubility of the peptides in water; format: physicochemical; conditions: determined in water
Non-standard residues stand in square brackets, D forms with d. Residues, ends and D or L forms follow the SMILES beside them. dBip = N[C@H](Cc1ccc(-c2ccccc2)cc1)C(=O)O
Give your result in µg/mL as a bare value.

Worked examples follow.
Compound	solubility / µg/mL
CC(C)C[C@@H](NC(=O)CNC(=O)[C@@H](CCC(=O)O)NC(=O)[C@@H](Cc1ccc(O)cc1)NC(=O)[C@@H](CCC(=O)O)NC(=O)[C@@H](CO)NC(=O)[C@H](NC(=O)[C@H](N)Cc1ccc(-c2ccccc2)cc1)[C@H](C)O)C(=O)N[C@@H](CCCCN)C(=O)N[C@@H](CCCCN)C(=O)O [Peptide 213.22, (bip)tseyeglKK] (H-[dBip][dT][dS][dE][dY][dE]G[dL]KK-OH; N-terminus and C-terminus assumed)	24500
CC(C)C[C@@H](NC(=O)[C@@H](C)NC(=O)[C@@H](CCC(=O)O)NC(=O)[C@@H](Cc1ccc(O)cc1)NC(=O)[C@@H](CCC(=O)O)NC(=O)[C@@H](CO)NC(=O)[C@H](NC(=O)[C@H](N)Cc1ccc(-c2ccccc2)cc1)[C@H](C)O)C(=O)N[C@@H](CCCCN)C(=O)O [Peptide 213.19, (bip)tseyealK] (H-[dBip][dT][dS][dE][dY][dE][dA][dL]K-OH; N-terminus and C-terminus assumed)	2800

Please find the next compound below.
Documented solubility of CC(C)C[C@@H](NC(=O)[C@@H](C)NC(=O)[C@@H](CCC(=O)O)NC(=O)[C@@H](Cc1ccc(O)cc1)NC(=O)[C@@H](CCC(=O)O)NC(=O)[C@@H](CO)NC(=O)[C@H](NC(=O)[C@H](N)Cc1ccc(-c2ccccc2)cc1)[C@H](C)O)C(=O)O [Peptide 213.15, (bip)tseyeal] (H-[dBip][dT][dS][dE][dY][dE][dA][dL]-OH; N-terminus and C-terminus assumed) : 200
